Listed compounds paired with reported % Ctrl, ABL1(Y253F)-phosphorylated
measurement_target: kinases (Homo sapiens, UniProt P00519, Y253F)
Construct: purchased Eurofins/DiscoveRx; host or cells: E. coli BL21-derived host (T7 phage display) for most kinases; HEK-293 for the rest
method_description: KINOMEscan kinase binding assay (Eurofins/DiscoveRx), % Ctrl
applied_conditions: target ABL1(Y253F)-phosphorylated; 1 μM
Express your answer in % Ctrl, writing the number without its unit.

These solved cases illustrate the format of a correct answer.
compound	quantity_kind	observed_result
Cc1cc2c([nH]1)/C=C1\C(=O)Nc3ccc(cc31)-c1c(noc1C)CNCCN(C)C2=O [Ex. 139]	% Ctrl, ABL1(Y253F)-phosphorylated	11
Cc1cc2c([nH]1)/C=C1\C(=O)Nc3ccc(cc31)-c1c(C)nn(C)c1COCCN(C)C2=O [Ex. 146]	% Ctrl, ABL1(Y253F)-phosphorylated	89

Which % Ctrl, ABL1(Y253F)-phosphorylated is listed for Cc1cc2c([nH]1)/C=C1\C(=O)Nc3cnc(cc31)-c1cn[nH]c1CNCCN(C)C2=O [Ex. 55] ?
3.1

---

Listed compounds paired with reported % Ctrl, ABL1(F317L)-phosphorylated
measurement_target: kinases (Homo sapiens, UniProt P00519, F317L)
Construct: purchased Eurofins/DiscoveRx; host or cells: E. coli BL21-derived host (T7 phage display) for most kinases; HEK-293 for the rest
method_description: KINOMEscan kinase binding assay (Eurofins/DiscoveRx), % Ctrl
applied_conditions: 1 μM; ABL1(F317L)-phosphorylated
Express your answer in % Ctrl, writing the number without its unit.

These solved cases illustrate the format of a correct answer.
compound	% Ctrl, ABL1(F317L)-phosphorylated [% Ctrl]
Cc1cc2c([nH]1)/C=C1\C(=O)Nc3ccc(cc31)-c1ccnn1CCOCCN(C)C2=O [Ex. 41]	53
Cc1cc2c([nH]1)/C=C1\C(=O)Nc3ccc(cc31)-c1c(C)n[nH]c1CNCCN(C)C2=O [Ex. 127]	0.8
Cc1cc2c([nH]1)/C=C1\C(=O)Nc3ccc(cc31)O[C@@H](C)COCCN(C)C2=O [Ex. 92]	76
Cc1cc2c([nH]1)/C=C1\C(=O)Nc3ccc(cc31)-c1ccnn1CCNCCNC2=O [Ex. 43]	90
Cc1cc2c([nH]1)/C=C1\C(=O)Nc3ccc(cc31)CN(C)C(=O)COCCNC2=O [Ex.111]	100

Record lookup: for kinases (Homo sapiens, UniProt P00519, F317L), what % Ctrl, ABL1(F317L)-phosphorylated belongs to Cc1cc2c([nH]1)/C=C1\C(=O)Nc3ccc(nc31)-c1ccccc1OCCCNC2=O [Ex.22] ?
100

Record lookup: for kinases (Homo sapiens, UniProt P00519, F317L), what % Ctrl, ABL1(F317L)-phosphorylated belongs to Cc1cc2c([nH]1)/C=C1\C(=O)Nc3ccc(cc31)-c1cnn(C)c1CN(C)CCN(C)C2=O [Ex. 126] ?
0

Record lookup: for kinases (Homo sapiens, UniProt P00519, F317L), what % Ctrl, ABL1(F317L)-phosphorylated belongs to Cc1cc2c([nH]1)/C=C1\C(=O)Nc3cnc(cc31)-c1cnn(C)c1COCCNC2=O [Ex.123] ?
100

---

measurement_target: kinases (Homo sapiens, UniProt P00519)
Construct: purchased Eurofins/DiscoveRx; host or cells: E. coli BL21-derived host (T7 phage display) for most kinases; HEK-293 for the rest
method_description: KINOMEscan kinase binding assay (Eurofins/DiscoveRx), % Ctrl
applied_conditions: target ABL1-nonphosphorylated; 1 μM
Listed compounds paired with reported % Ctrl, ABL1-nonphosphorylated
Express your answer in % Ctrl, writing the number without its unit.

CN1CCSCCOc2cc3c(cc2Cl)NC(=O)/C3=C\c2[nH]ccc2C1=O 1.3
Cc1cc2c([nH]1)/C=C1\C(=O)Nc3ccc(cc31)-c1c(noc1C)CNCCN(C)C2=O 17
Cc1cc2c([nH]1)/C=C1\C(=O)Nc3cc(Cl)c(cc31)OCCO[C@@H](C(=O)N1CCN(C)CC1)CN(C)C2=O 79

Turning now to a further compound:
Which % Ctrl, ABL1-nonphosphorylated is listed for CN1CCOCCOc2cc3c(cc2Cl)NC(=O)/C3=C\c2[nH]ccc2C1=O ?
6

Data credit: patent US20230257396A1
